test system: MDA-MB-468 breast; assay: NCI tumour cell line growth inhibition, 48 h
TGI below 3 µM gives Not satisfied; TGI at or above it gives Satisfied.

compound	subject-of-test	class-name
Cc1ccc(C(=O)CSc2nc3ccc(F)cc3c(=O)n2-c2ccc(Cl)cc2)cc1	MDA-MB-468 breast	Satisfied
CCN(CC)c1ccc(/C=C/c2ccc3cc(C)ccc3[n+]2CC)cc1	MDA-MB-468 breast	Not satisfied
CC[C@]1(O)C[C@@H]2CN(CCc3c([nH]c4ccccc34)[C@@](C(=O)OC)(c3cc4c(cc3OC)N(C)[C@H]3[C@@](O)(C(=O)OC)[C@H](OC(C)=O)[C@]5(CC)C=CCN6CC[C@]43[C@@H]65)C2)C1	MDA-MB-468 breast	Not satisfied
C=CC(=O)N1CC2(CCN(c3nc(OC4CCN(CCCOC)CC4)nc4c(OCC(F)(F)F)c(-c5c(C)ccc6[nH]ncc56)c(C5CC5)cc34)CC2)C1	MDA-MB-468 breast	Satisfied
CN1CCN(C(=O)OCc2nc3c(N4CCOCC4)nc(Cl)nc3n2C)CC1	MDA-MB-468 breast	Not satisfied
COc1ccc(-c2cnnc3c(-c4cccc(C(F)(F)F)c4)cnn23)cc1	MDA-MB-468 breast	Satisfied
COC(=O)[C@]12CC[C@@H](C)[C@H](C)[C@@H]1C1=CC[C@@H]3[C@@]4(C)C/C(=N\O)[C@H](O)[C@@]5(C)COC(=C45)C[C@@]3(C)[C@]1(C)CC2	MDA-MB-468 breast	Satisfied
C[C@@H]1OC(O)[C@@H](F)[C@H](O)[C@@H]1O (stereo partly specified)	MDA-MB-468 breast	Satisfied
FC(F)(F)c1cccc(Nc2nccc(-c3cnn4nc(-c5ccccc5)ccc34)n2)c1	MDA-MB-468 breast	Satisfied
CS(=O)(=O)Nc1cc(-c2ccc3ncnc(N4CCc5cc(F)c(Cl)cc54)c3c2)cnc1Cl	MDA-MB-468 breast	Not satisfied
CCCn1cnc2c(SCc3ccccc3Cl)nc(N)nc21	MDA-MB-468 breast	Satisfied

The measurements presented in this section are drawn from PubChem BioAssay (NCI).
